I'd be grateful if you could share measured Ki for these entries.
- target.under.test: Cannabinoid receptor 1 (Homo sapiens)
- Sequence (P21554 whole entry): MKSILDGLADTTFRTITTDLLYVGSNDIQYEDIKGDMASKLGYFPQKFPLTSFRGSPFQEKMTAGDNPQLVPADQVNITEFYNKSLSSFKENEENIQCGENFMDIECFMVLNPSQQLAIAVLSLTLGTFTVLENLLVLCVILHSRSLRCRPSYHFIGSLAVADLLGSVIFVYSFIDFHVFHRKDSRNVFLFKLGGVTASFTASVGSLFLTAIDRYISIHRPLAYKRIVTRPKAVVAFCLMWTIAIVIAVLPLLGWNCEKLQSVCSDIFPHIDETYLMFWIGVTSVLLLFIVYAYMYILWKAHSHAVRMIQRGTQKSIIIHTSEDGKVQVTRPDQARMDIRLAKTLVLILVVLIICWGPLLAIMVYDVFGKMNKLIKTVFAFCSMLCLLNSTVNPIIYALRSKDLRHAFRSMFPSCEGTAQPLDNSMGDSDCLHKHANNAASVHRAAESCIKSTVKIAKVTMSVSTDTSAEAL
- assay: Displacement of [3H]-CP-55,940 from recombinant human CB1R expressed in HEK293 cell membranes after 90 mins

Given the entry CCCc1cc(O)c2c(c1)OC(C)(C)[C@@H]1CCC(C(=O)O)=C[C@@H]21 , report its measured Ki.
187 nM

What do we get for CCCc1cc(O)c2c(c1)OC(C)(C)[C@@H]1C[C@H](O)C(C)=C[C@@H]21 ?
25.6 nM

Next entry: CCCc1cc(O)c2c(c1)OC(C)(C)[C@@H]1CCC(C)=C[C@@H]21 [TETRAHYDROCANNABIVARIN]
1.5 nM

Also need CCCc1cc(O)c2c(c1)OC(C)(C)[C@@H]1CCC(CO)=C[C@@H]21 , thanks.
2.5 nM

Repeat for the following compound: CCCc1cc(O)c2c(c1)OC(C)(C)[C@@H]1C[C@@H](O)C(C)=C[C@@H]21
> 10000 nM

====

- target.under.test: Cannabinoid receptor 2 (Homo sapiens)
- Sequence (P34972 whole entry): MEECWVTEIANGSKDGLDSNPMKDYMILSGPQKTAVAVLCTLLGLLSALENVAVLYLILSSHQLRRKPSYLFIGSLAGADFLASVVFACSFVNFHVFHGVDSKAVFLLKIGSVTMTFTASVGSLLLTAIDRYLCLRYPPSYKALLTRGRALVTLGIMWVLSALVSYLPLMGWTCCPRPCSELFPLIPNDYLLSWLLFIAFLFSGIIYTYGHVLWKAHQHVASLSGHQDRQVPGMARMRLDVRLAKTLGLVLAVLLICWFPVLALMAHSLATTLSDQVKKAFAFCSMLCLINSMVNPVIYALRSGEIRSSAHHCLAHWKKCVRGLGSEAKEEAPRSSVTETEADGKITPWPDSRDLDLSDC
- assay: Displacement of [3H]-CP-55,940 from recombinant human CB2R expressed in HEK293 cell membranes after 90 mins
reported.endpoint: pKi
Worth noting: pKi values are minus log10 of concentrations stated in mol/L.

Which value of pKi has been reported for CCCc1cc(O)c2c(c1)OC(C)(C)[C@@H]1CCC(C(=O)O)=C[C@@H]21 in the records?
6.23

Here is the next molecule: CCCc1cc(O)c2c(c1)OC(C)(C)[C@@H]1C[C@H](O)C(C)=C[C@@H]21
6.89

Moving on to CCCc1cc(O)c2c(c1)OC(C)(C)[C@@H]1CCC(C)=C[C@@H]21 [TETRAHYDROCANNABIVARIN]
8.55

// next record CCCc1cc(O)c2c(c1)OC(C)(C)[C@@H]1CCC(CO)=C[C@@H]21
8.33

====

- target.under.test: UniProt:P21554
- assay: Displacement of [3H]-CP-55,940 from recombinant human CB1R expressed in HEK293 cell membranes after 90 mins
Could you please report measured IC50 for the items listed next?
Write the number in nM without appending the unit.

State its IC50 on UniProt:P21554: CCCc1cc(O)c2c(c1)OC(C)(C)[C@@H]1CCC(CO)=C[C@@H]21
22.7

Record: CCCc1cc(O)c2c(c1)OC(C)(C)[C@@H]1C[C@H](O)C(C)=C[C@@H]21
230

Next entry: CCCc1cc(O)c2c(c1)OC(C)(C)[C@@H]1CCC(C(=O)O)=C[C@@H]21
1680

Repeat with CCCc1cc(O)c2c(c1)OC(C)(C)[C@@H]1CCC(C)=C[C@@H]21 [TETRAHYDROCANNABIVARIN]
13.1
